# System: Escherichia coli TOP10;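 further: peptides expressed intracellularly from a pBAD plasmid library in pooled LB shake-flask culture, induced with 0.3% L-arabinose, DNA abundance read by NGS, three biological replicates, DESeq2 with apeglm shrinkage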
# procedure_text: shrunken log2 fold change of peptide-encoding DNA abundance (4.5 h post-induction vs induction); higher = less antimicrobial activity (less host growth inhibition)
# setup_conditions: time post-induction: 4.5 h; library: site-saturation at positions 5, 18, 19, 20
Label scheme for shrunken log2 fold change: lower than -0.01 is FALSE, -0.01 and above is TRUE.

RRIRPRPPRLPRPRPRPKWAPRP :: TRUE
RRIRERPPRLPRPRPRPKMEPRP :: FALSE
RRIRRRPPRLPRPRPRPLDSPRP :: FALSE
RRIRSRPPRLPRPRPRPGVPPRP :: TRUE
RRIRGRPPRLPRPRPRPHGCPRP :: TRUE

Incoming: Hi team, for "RRIRKRPPRLPRPRPRPPSIPRP" , is the recorded shrunken log2 fold change at or above -0.01?
Outgoing: TRUE

Incoming: Now try "RRIRNRPPRLPRPRPRPKAAPRP" .
Outgoing: TRUE
